experiment: protein stability index of a GFP-peptide fusion (GPS, HEK-293T) (PSI 1-6); higher = more stable; settings: treatment: MLN4924 1 uM, 8 h; c terminus: a fixed tail appended;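 note: 24-mer peptide tiles fused after GFP, lentivirally expressed, FACS-sorted into six equal bins by GFP/DsRed ratio, decoded by Illumina sequencing, PSI is the read-weighted mean bin number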
The entries below are paired with their reported protein stability index.
Lab note: write the figure by itself, no unit.

Check out these entries, answers already filled in.
- chain-sequence: "QEITSETEDLCEKPDDEVKETAHD [RIPK4]"
  protein stability index: 5.69
- chain-sequence: "LLPPGEPPLLGTFPRDHTSLALVQ [ANKRD40]"
  protein stability index: 3.39

Input line: Entry LLPLTELSVCPLEGSREHAFQITG [PLEKHN1] : reported protein stability index = ?
Output line: 2.83

Input line: Entry GSNPSSSNSSQDSLHKGAKRKGIK [PPFIA4] : reported protein stability index = ?
Output line: 5.53
